Measured On: Transient receptor potential cation channel subfamily V member 1 (Rattus norvegicus, UniProt O35433)
Sequence (O35433 whole entry): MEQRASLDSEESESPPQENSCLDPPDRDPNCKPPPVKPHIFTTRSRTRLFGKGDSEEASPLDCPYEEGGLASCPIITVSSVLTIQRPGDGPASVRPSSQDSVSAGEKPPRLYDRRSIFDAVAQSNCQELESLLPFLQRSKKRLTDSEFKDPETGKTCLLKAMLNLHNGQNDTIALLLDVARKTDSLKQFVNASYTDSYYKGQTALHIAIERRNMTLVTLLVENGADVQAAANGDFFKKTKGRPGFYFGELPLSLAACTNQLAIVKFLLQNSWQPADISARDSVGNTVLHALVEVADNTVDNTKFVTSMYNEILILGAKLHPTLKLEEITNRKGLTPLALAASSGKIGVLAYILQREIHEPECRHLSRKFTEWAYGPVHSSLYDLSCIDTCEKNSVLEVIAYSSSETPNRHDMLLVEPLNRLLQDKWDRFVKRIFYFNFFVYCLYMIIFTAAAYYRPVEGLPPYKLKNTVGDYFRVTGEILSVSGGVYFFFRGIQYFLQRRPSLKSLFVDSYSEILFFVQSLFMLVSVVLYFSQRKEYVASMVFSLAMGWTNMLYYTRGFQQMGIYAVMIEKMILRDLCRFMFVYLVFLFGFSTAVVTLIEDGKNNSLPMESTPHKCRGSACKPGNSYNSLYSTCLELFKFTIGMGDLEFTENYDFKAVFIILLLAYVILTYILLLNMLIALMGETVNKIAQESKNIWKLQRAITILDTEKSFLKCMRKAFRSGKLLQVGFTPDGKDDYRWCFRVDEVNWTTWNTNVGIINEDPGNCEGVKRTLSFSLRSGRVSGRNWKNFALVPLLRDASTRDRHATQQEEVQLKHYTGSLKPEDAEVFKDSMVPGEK
pKi: −log10 of the molar value.
Decision: pKi compared against 6; not below it gives Condition met, below it gives Condition not met.

# Molecule, Assigned Label
measured = [
    ("COc1cc(CC(=O)NCCCc2ccc(C)c(C)c2)ccc1O", "Condition met"),
    ("CCCCCCCCCNC(=O)Cc1ccc(O)c(OC)c1", "Condition met"),
    ("CC(C(=O)NCc1ccc(C(C)(C)C)cc1)c1ccc(O)c(Cl)c1 (stereo not drawn)", "Condition met"),
    ("COc1cc(C(C)C(=O)NCc2ccc(C(C)(C)C)cc2)ccc1O (stereo not drawn)", "Condition met"),
    ("COc1cc(C(C)NC(=S)NCc2ccc(C(C)(C)C)cc2)ccc1O (stereo not drawn)", "Condition met"),
    ("CCCCCCCC/C=C\\CCCCCCCC(=O)NCc1ccc(O)c(OC)c1 [OLVANIL]", "Condition met"),
    ("COc1cc(C(C)C(=O)NCCCc2ccc(C)c(C)c2)ccc1O (stereo not drawn)", "Condition met"),
    ("COc1cc(C/N=C(\\S)NCc2ccc(C(C)(C)C)cc2)ccc1OCCN", "Condition met"),
    ("CC(C)(C)c1ccc(CNC(=O)Cc2ccc(OCCN)c(F)c2)cc1", "Condition not met"),
    ("CC(C(=O)NCc1ccc(C(C)(C)C)cc1)c1ccc(OCCN)c(Cl)c1 (stereo not drawn)", "Condition met"),
    ("CC(C(=O)NCc1ccc(C(C)(C)C)cc1)c1ccc(O)c(F)c1 (stereo not drawn)", "Condition met"),
    ("CCCCCCCC/C=C/CCCCCCCC(=O)NC(C)c1ccc(O)c(OC)c1 (stereo not drawn)", "Condition met"),
    ("COc1cc(C(C)C(=O)NCCCc2ccc(C)c(C)c2)ccc1OCCN (stereo not drawn)", "Condition met"),
    ("CCCCCCCCC(=O)NC(C)c1ccc(O)c(OC)c1 (stereo not drawn)", "Condition not met"),
    ("CC(C(=O)NCc1ccc(C(C)(C)C)cc1)c1ccc(OCCN)c(F)c1 (stereo not drawn)", "Condition not met"),
    ("CC(C)(C)c1ccc(CNC(=O)Cc2ccc(OCCN)c(Cl)c2)cc1", "Condition not met"),
    ("COc1cc(C(C)C(=O)NCc2ccc(C(C)(C)C)cc2)ccc1OCCN (stereo not drawn)", "Condition met"),
    ("CCCCCCCCCC(=O)NC(C)c1ccc(O)c(OC)c1 (stereo not drawn)", "Condition not met"),
]

----------
Measured On: Transient receptor potential cation channel subfamily V member 1 (Rattus norvegicus) (UniProt O35433)
Sequence (O35433 whole entry): as above
Experimental Protocol: Antagonist activity at rat TRPV1 expressed in CHO cells assessed as inhibition of calcium uptake at 30 uM
Type: functional, cell-based
Decision: inhibition compared against 10%; not below it gives fulfilled, below it gives not fulfilled.

# Compound, Assigned Label
measured = [
    ("CCCCCCCCCC(=O)NC(C)c1ccc(O)c(OC)c1 (stereo unspecified)", "fulfilled"),
    ("COc1cc(CC(=O)NCc2ccc(C(C)(C)C)cc2)ccc1OCCN", "fulfilled"),
    ("CCCCCCCCC(=O)NC(C)c1ccc(O)c(OC)c1 (stereo unspecified)", "fulfilled"),
    ("COc1cc(C(C)NC(=S)NCc2ccc(C(C)(C)C)cc2)ccc1O (stereo unspecified)", "fulfilled"),
    ("CC(C(=O)NCc1ccc(C(C)(C)C)cc1)c1ccc(O)c(Cl)c1 (stereo unspecified)", "not fulfilled"),
    ("CC(C(=O)NCc1ccc(C(C)(C)C)cc1)c1ccc(O)c(F)c1 (stereo unspecified)", "fulfilled"),
]

----------
Measured On: Transient receptor potential cation channel subfamily V member 1 (Rattus norvegicus, UniProt O35433)
pKi: −log10 of the molar value.
Assay Readout: pKi

# Compound, Assay Readout, Value
rows = [
    ("CCCCCCCCCNC(=O)C(C)c1ccc(O)c(OC)c1 (stereo not given)", "pKi", 6.80),
    ("CC(C)(C)c1ccc(CNC(=O)Cc2ccc(O)c(Cl)c2)cc1", "pKi", 6.88),
    ("CCCCCCCCNC(=O)Cc1ccc(O)c(OC)c1", "pKi", 6.07),
    ("CCCCCCCCC(=O)NCc1ccc(O)c(OC)c1 [NONIVAMIDE]", "pKi", 5.91),
    ("COc1cc(C(C)NC(=S)NCc2ccc(C(C)(C)C)cc2)ccc1OCCN (stereo not given)", "pKi", 5.84),
]

----------
EC50: recorded values
Measured On: UniProtKB O35433
Experimental Protocol: Agonist activity at rat TRPV1 expressed in CHO cells assessed as calcium uptake

# Molecule, Value Units, EC50
rows = [
    ("COc1cc(C(C)NC(=S)NCc2ccc(C(C)(C)C)cc2)ccc1OCCN (centres undefined)", "nM", 5800),
    ("COc1cc(C(C)C(=O)NCc2ccc(C(C)(C)C)cc2)ccc1O (centres undefined)", "nM", 24),
    ("CC(C)(C)c1ccc(CNC(=O)Cc2ccc(O)c(Cl)c2)cc1", "nM", 206),
    ("COc1cc(C(C)C(=O)NCCCc2ccc(C)c(C)c2)ccc1OCCN (centres undefined)", "nM", 404),
    ("COc1cc(C(C)C(=O)NCc2ccc(C(C)(C)C)cc2)ccc1OCCN (centres undefined)", "nM", 238),
    ("CCCCCCCC/C=C/CCCCCCCC(=O)NC(C)c1ccc(O)c(OC)c1 (centres undefined)", "nM", 678),
    ("CCCCCCCCC(=O)NC(C)c1ccc(O)c(OC)c1 (centres undefined)", "nM", 1580),
    ("COc1cc(C/N=C(\\S)NCc2ccc(C(C)(C)C)cc2)ccc1OCCN", "nM", 132),
    ("CCCCCCCCNC(=O)C(C)c1ccc(O)c(OC)c1 (centres undefined)", "nM", 130),
    ("CCCCCCCCNC(=O)Cc1ccc(O)c(OC)c1", "nM", 77),
    ("CCCCCCCCCNC(=O)Cc1ccc(O)c(OC)c1", "nM", 61),
    ("COc1cc(C(C)C(=O)NCCCc2ccc(C)c(C)c2)ccc1O (centres undefined)", "nM", 21.3),
    ("CCCCCCCCCC(=O)NCc1ccc(O)c(OC)c1", "nM", 83),
    ("CCCCCCCC/C=C\\CCCCCCCC(=O)NCc1ccc(O)c(OC)c1 [OLVANIL]", "nM", 202),
    ("COc1cc(CC(=O)NCCCc2ccc(C)c(C)c2)ccc1O", "nM", 41),
    ("CCCCCCCCCNC(=O)C(C)c1ccc(O)c(OC)c1 (centres undefined)", "nM", 26.3),
    ("COc1cc(CC(=O)NCCCc2ccc(C)c(C)c2)ccc1OCCN [DAVASAICIN]", "nM", 589),
    ("CCCCCCCCCC(=O)NC(C)c1ccc(O)c(OC)c1 (centres undefined)", "nM", 1250),
    ("COc1cc(C(C)NC(=S)NCc2ccc(C(C)(C)C)cc2)ccc1O (centres undefined)", "nM", 380),
    ("CC(C(=O)NCc1ccc(C(C)(C)C)cc1)c1ccc(O)c(F)c1 (centres undefined)", "nM", 221),
    ("CC(C)(C)c1ccc(CNC(=O)Cc2ccc(O)c(F)c2)cc1", "nM", 911),
    ("CCCCCCCCC(=O)NCc1ccc(O)c(OC)c1 [NONIVAMIDE]", "nM", 223),
    ("COc1cc(CNC(=S)NCc2ccc(C(C)(C)C)cc2)ccc1O", "nM", 2.6),
    ("COc1cc(CC(=O)NCc2ccc(C(C)(C)C)cc2)ccc1OCCN", "nM", 358),
]

----------
Measured On: Transient receptor potential cation channel subfamily V member 1 (Rattus norvegicus) (UniProt O35433)
Experimental Protocol: Antagonist activity at rat TRPV1 expressed in CHO cells assessed as inhibition of calcium uptake at 30 uM
Format: functional, cell-based
Decision: inhibition compared against 20%; not below it gives y, below it gives n.

# Compound, Assigned Label
records = [
    ("CC(C)(C)c1ccc(CNC(=O)Cc2ccc(OCCN)c(F)c2)cc1", "n"),
    ("CC(C)(C)c1ccc(CNC(=O)Cc2ccc(OCCN)c(Cl)c2)cc1", "y"),
    ("CC(C)(C)c1ccc(CNC(=O)Cc2ccc(O)c(F)c2)cc1", "y"),
    ("CC(C(=O)NCc1ccc(C(C)(C)C)cc1)c1ccc(OCCN)c(Cl)c1 (stereo unspecified)", "y"),
    ("COc1cc(C(C)C(=O)NCc2ccc(C(C)(C)C)cc2)ccc1O (stereo unspecified)", "n"),
    ("COc1cc(C(C)C(=O)NCc2ccc(C(C)(C)C)cc2)ccc1OCCN (stereo unspecified)", "n"),
]

----------
Measured On: Transient receptor potential cation channel subfamily V member 1 (Rattus norvegicus)
Experimental Protocol: Agonist activity at rat TRPV1 expressed in CHO cells assessed as calcium uptake at 300 nM relative to capsaicin
Format: functional, cell-based

# Molecule, Value Units, Activity
data = [
    ("CCCCCCCCC(=O)NC(C)c1ccc(O)c(OC)c1 (configuration not stated)", "%", 72),
    ("CC(C(=O)NCc1ccc(C(C)(C)C)cc1)c1ccc(OCCN)c(F)c1 (configuration not stated)", "%", 91),
    ("CC(C)(C)c1ccc(CNC(=O)Cc2ccc(OCCN)c(Cl)c2)cc1", "%", 36),
    ("CC(C)(C)c1ccc(CNC(=O)Cc2ccc(OCCN)c(F)c2)cc1", "%", 63),
    ("COc1cc(C(C)NC(=S)NCc2ccc(C(C)(C)C)cc2)ccc1O (configuration not stated)", "%", 70),
    ("CC(C(=O)NCc1ccc(C(C)(C)C)cc1)c1ccc(O)c(Cl)c1 (configuration not stated)", "%", 77),
    ("CC(C(=O)NCc1ccc(C(C)(C)C)cc1)c1ccc(OCCN)c(Cl)c1 (configuration not stated)", "%", 75),
]
